assay: Cellular viability qHTS for adrenocortical cancer (ACC) cell line SW-13 (AID 1963989); details: SW-13 ACC cells viability, CellTiter-Glo, 48 h; active compounds read low; note: nearly all actives have a fitted effect of over 65% in size;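 for activity (max response): cells grown in serum-free medium with ITS supplement; % is set by controls: 0 for no effect and ±100 for the full control effect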
Records with an inconclusive call do not appear.
For each entry below, report its activity (max response) value.
Numbers only, in %.

Example results:
C/C=C/CC(C)C(O)C1C(=O)NC(CC)C(=O)N(C)CC(=O)N(C)C(CC(C)C)C(=O)NC(C(C)C)C(=O)N(C)C(CC(C)C)C(=O)NC(C)C(=O)NC(C)C(=O)N(C)C(CC(C)C)C(=O)N(C)C(CC(C)C)C(=O)N(C)C(C(C)C)C(=O)N1C (configuration not stated)    -11.5
CCOC(=O)[C@H](CCc1ccccc1)N[C@H]1CCc2ccccc2N(CC(=O)O)C1=O    -3.37
CCCCC(CC)COC(=O)/C=C/c1ccc(OC)cc1 (configuration not stated)    1.77
C[C@H](NC(=O)Cc1cc(F)cc(F)c1)C(=O)N[C@@H]1C(=O)N(C)c2ccccc2-c2ccccc21    -7.45

For every item below, please supply its activity (max response).
1. Cc1ccc(S(=O)(=O)NC(=O)NC2CCCCC2)cc1
2. COc1cc(C(C)C)c(Oc2cnc(NC(CO)CO)nc2N)cc1I
3. CC(=O)N(CC(O)CO)c1c(I)c(C(=O)NCC(O)CO)c(I)c(C(=O)NCC(O)CO)c1I (configuration not stated)
4. COc1cc(S(C)(=O)=O)ccc1Nc1nc2ccc(-c3ccc(NC(=O)[C@H](C)c4ccc(F)cc4)cc3)cn2n1
5. C[C@]12CC[C@@H]3c4ccc(O)cc4C[C@@H](CCCCCCCCCS(=O)CCCC(F)(F)C(F)(F)F)[C@H]3[C@H]1CC[C@H]2O (some centres not stated)

Ans.
[8.41, -4, 11.9, -19.6, -14.8]

====

Experiment: Quantitative highthroughput screen to assess conditional lethalithy of NOMO1 cells grown in RPMI1640 with untreated serum (RPMI+s) (AID 1963876); note: nearly all actives have a fitted effect of over 35% in size;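 for viability: 100% = DMSO wells and 0% = empty wells without cells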
Details: NOMO1 AML cells in RPMI+serum, CellTiter-Glo viability, 48 h; series mostly up to 45.8 µM
Experimental: Assay Provider: Jason Cantor Ph.D. Department of Biochemistry University of Wisconsin-Madison, Madison, WI, USA Chemical screening studies have identified drug sensitivities across hundreds of cancer cell lines but most putative therapeutics fail to translate. […] Sets of conditional anticancer compounds spanned phases of clinical development and included non-oncology drugs were assessed. […] 6; Detection; Luminescence, Viewlux PerkinElmer. […]
Inconclusive results are not listed. Active and inactive are the calls of the source. Calls come from the whole dose curve; as a rule, active = well fitted cell-killing curve with a large enough effect; inconclusive = small, poorly fitted or top-dose-only effect; inactive = flat fitted curve, though single readings scatter.
Respond using exactly one of the listed classes: T (active), F (inactive)

Here's what some known entries look like.
Cc1cnc(Nc2cccc(CN3CCOCC3)c2)nc1Nc1cccc(S(=O)(=O)NC(C)(C)C)c1    F
CCCCCCCCCCCCCCCCCCCCCCO    F
O=c1c(O)c(-c2ccc(O)c(O)c2)oc2cc(O)ccc12    F
COc1cc(Nc2ncc3c(n2)-c2ccc(Cl)cc2C(c2c(F)cccc2OC)=NC3)ccc1C(=O)O    T
C=CCNc1c(O)cc2c(O)c1C[C@@H](C)C[C@H](OC)[C@@H](O)[C@@H](C)C=C(C)[C@H](OC(N)=O)[C@@H](OC)C=CC=C(C)C(=O)N2    T
CCN(CC)CCNC(=O)c1ccc2nc(-c3ccccc3)c(-c3ccc(CN4CCC(n5c(=O)[nH]c6ccccc65)CC4)cc3)nc2c1    T
Cc1c(CCOc2ccc(C(=O)O)cc2)c2cc(Cl)ccc2n1C(c1ccccc1)c1ccccc1    F
Cc1ncc([N+](=O)[O-])n1CC(C)O (stereo unspecified)    F

Qu. // param item: `CCN(CC)Cc1ccc2cc(COC(=O)Nc3ccc(C(=O)NO)cc3)ccc2c1` ; yields the recorded call
Ans. T

Qu. How did this test come out for `CO[C@@H]1COCC[C@@H]1N[C@@H]1CC[C@@](C(=O)N2CCc3ncc(C(F)(F)F)cc3C2)(C(C)C)C1` ?
Ans. F

Qu. Recorded test call requested for `c1cc(-c2sc(-c3ccncc3)c(-c3ccncc3)c2-c2ccncc2)ccn1`
Ans. F

====

test: Quantitative highthroughput screen to assess conditional lethalithy of NOMO1 cells grown in RPMI1640 with untreated serum (RPMI+s) (AID 1963876); conditions: NOMO1 AML cells in RPMI+serum, CellTiter-Glo viability, 48 h; series mostly up to 45.8 µM; note: nearly all actives have a fitted effect of over 35% in size; note: potency is the fitted concentration of half-maximal effect;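 for viability: 100% = DMSO wells and 0% = empty wells without cells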
Results filed as inconclusive are left out. Activity calls are given as the source filed them. Calls follow the shape of the dose curve; as a rule, active = well fitted cell-killing curve with a large enough effect; inconclusive = small, poorly fitted or top-dose-only effect; inactive = flat fitted curve, though single readings scatter.
quantity name: Potency

Here are 10 molecules together with their reported answers.
C=C1C(=O)[C@@]23C(CC[C@@H]1[C@H]2O)[C@@]12CO[C@]3(O)[C@@H](O)[C@@H]1C(C)(C)CC[C@@H]2O (some centres undefined)    20.9 µM (active)
COc1cc(C(C)=O)ccc1OCCCN1CCC(c2noc3cc(F)ccc23)CC1    inactive
O=C(O)CCC1CCC(c2cc(F)ccc2F)(S(=O)(=O)c2ccc(Cl)cc2)CC1 (centres undefined)    1.48 µM (active)
C[C@@]12O[C@@H](C[C@]1(O)CO)n1c3ccccc3c3c4c(c5c6ccccc6n2c5c31)CNC4=O    1.32 µM (active)
Oc1ccc(C2CNCCc3c2cc(O)c(O)c3Cl)cc1 (centres undefined)    inactive
CC(=O)NC(C)c1ccc(Oc2ccc(OC(C)C)cc2)cc1 (centres undefined)    inactive
O=c1cc(N2CCOCC2)oc2c(-c3ccccc3)cccc12    inactive
CC[C@@H]1C=C(C)C[C@H](C)C[C@H](OC)[C@H]2O[C@@](O)(C(=O)C(=O)N3CCCC[C@@H]3C(=O)O[C@H](C(C)=C[C@@H]3CC[C@H](Cl)[C@H](OC)C3)[C@H](C)[C@@H](O)CC1=O)[C@H](C)C[C@H]2OC    inactive
CC[C@H](C)n1cc(C)c2c(C(=O)NCc3c(C)cc(C)[nH]c3=O)cc(-c3ccc(N4CCNCC4)nc3)cc21    inactive
NCc1c[nH]c(=S)n1[C@H]1CCc2c(F)cc(F)cc2C1    inactive

Batch request: Potency for each of the following molecules.
1. Oc1ccc(C2=Cc3ccc(O)cc3OC2)cc1
2. Cc1ccc(O)c(C(CCN(C(C)C)C(C)C)c2ccccc2)c1 (centres undefined)
3. CCOC(=O)C1=C(O)C(=O)N(Cc2ccccc2)C1
4. CC[C@@H]([C@H](C)O)n1ncn(-c2ccc(N3CCN(c4ccc(OCC5CO[C@@](Cn6cncn6)(c6ccc(F)cc6F)C5)cc4)CC3)cc2)c1=O (some centres undefined)

Ans.
["9.35 µM (active)", "inactive", "inactive", "inactive"]

====

test: Quantitative highthroughput screen to assess conditional lethalithy of NOMO1 cells grown in RPMI1640 with untreated serum (RPMI+s) (AID 1963876); conditions: NOMO1 AML cells in RPMI+serum, CellTiter-Glo viability, 48 h; series mostly up to 45.8 µM; note: nearly all actives have a fitted effect of over 35% in size;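 for viability: 100% = DMSO wells and 0% = empty wells without cells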
Results filed as inconclusive are left out. Active and inactive are the calls of the source. The call rests on the fitted dose curve; in most records, active means well fitted cell-killing curve with a large enough effect; inconclusive means small, poorly fitted or top-dose-only effect; inactive means flat fitted curve, though single readings scatter.
I would appreciate it if you answered using one of these outcomes: active, inactive

Qu. # lookup: test call for CC(NCCc1ccc(O)cc1)C(O)c1ccc(O)cc1 (centres undefined)
Ans. inactive

Qu. How was `CCC(=O)O[C@]1(C(=O)SCF)[C@H](C)C[C@H]2[C@@H]3C[C@H](F)C4=CC(=O)C=C[C@]4(C)[C@@]3(F)[C@@H](O)C[C@@]21C` classified in this test?
Ans. inactive

Qu. Status in this test for `CC[C@H](CO)Nc1nc(NCc2ccccc2)c2ncn(C(C)C)c2n1` ?
Ans. inactive

====

assay: Cellular viability qHTS for adrenocortical cancer (ACC) cell line SW-13 (AID 1963989); conditions: SW-13 ACC cells viability, CellTiter-Glo, 48 h; note: nearly all actives have a fitted effect of over 65% in size; note: potency is the fitted concentration of half-maximal effect
Records with an inconclusive call do not appear. Active and inactive are the calls of the source. The call rests on the fitted dose curve; in most records, active means well fitted cell-killing curve with a large enough effect; inconclusive means small, poorly fitted or top-dose-only effect; inactive means flat fitted curve, though single readings scatter.
quantity name: Potency

Before answering, review these 3 worked examples.
CC(C)(C)CC(C)(C)c1ccc(OCCOCC[N+](C)(C)Cc2ccccc2)cc1    5.17 µM (active)
CCOc1cc2ncc(C#N)c(Nc3ccc(F)c(Cl)c3)c2cc1NC(=O)/C=C/CN(C)C    0.631 µM (active)
Nc1nc(Nc2ccc(S(N)(=O)=O)cc2)nn1C(=O)c1c(F)cccc1F    3.55 µM (active)

// batch mode: one Potency value per listed entry
1. COc1cc(OC)c(/C=C/S(=O)(=O)Cc2ccc(OC)c(NCC(=O)O)c2)c(OC)c1
2. COc1ccc(-c2nc(N3CCOCC3)c3sc(CN(C)c4ncc(C(=O)NO)cn4)cc3n2)cn1
3. O=C(CCCCCCNC(=O)c1cnc(N(c2ccccc2)c2ccccc2Cl)nc1)NO
4. C=CCn1c(=O)c2cnc(Nc3ccc(N4CCN(C)CC4)cc3)nc2n1-c1cccc(C(C)(C)O)n1
5. COc1cc(N2CCC(N3CCN(C)CC3)CC2)ccc1Nc1ncnc(Nc2ccccc2S(=O)(=O)C(C)C)n1

Ans.
0.02 µM (active)
0.355 µM (active)
14.1 µM (active)
3.55 µM (active)
11.2 µM (active)
